# target_under_test: soluble guanylate cyclase (Sus scrofa, UniProt A0A4X1U7N1+A0ACM8Q7I6)
# Construct: endogenous in cells; host or cells: primary endothelial cells from pig aorta
# Sequence (A0A4X1U7N1 1-619): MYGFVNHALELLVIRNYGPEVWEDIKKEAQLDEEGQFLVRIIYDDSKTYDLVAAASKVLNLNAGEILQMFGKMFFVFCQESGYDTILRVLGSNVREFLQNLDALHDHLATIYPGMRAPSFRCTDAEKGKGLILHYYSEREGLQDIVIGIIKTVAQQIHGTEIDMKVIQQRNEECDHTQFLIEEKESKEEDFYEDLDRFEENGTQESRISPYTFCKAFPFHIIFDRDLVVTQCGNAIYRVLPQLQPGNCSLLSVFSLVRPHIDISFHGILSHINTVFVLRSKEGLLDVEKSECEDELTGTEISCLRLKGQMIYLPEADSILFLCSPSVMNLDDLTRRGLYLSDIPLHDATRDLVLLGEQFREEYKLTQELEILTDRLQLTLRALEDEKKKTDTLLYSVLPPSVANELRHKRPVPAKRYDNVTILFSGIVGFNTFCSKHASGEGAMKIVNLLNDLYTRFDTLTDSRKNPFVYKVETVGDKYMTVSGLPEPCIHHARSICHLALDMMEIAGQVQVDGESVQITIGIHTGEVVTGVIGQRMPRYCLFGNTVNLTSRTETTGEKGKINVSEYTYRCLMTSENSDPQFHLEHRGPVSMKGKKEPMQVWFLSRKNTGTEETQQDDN
# Sequence (A0ACM8Q7I6 1-688): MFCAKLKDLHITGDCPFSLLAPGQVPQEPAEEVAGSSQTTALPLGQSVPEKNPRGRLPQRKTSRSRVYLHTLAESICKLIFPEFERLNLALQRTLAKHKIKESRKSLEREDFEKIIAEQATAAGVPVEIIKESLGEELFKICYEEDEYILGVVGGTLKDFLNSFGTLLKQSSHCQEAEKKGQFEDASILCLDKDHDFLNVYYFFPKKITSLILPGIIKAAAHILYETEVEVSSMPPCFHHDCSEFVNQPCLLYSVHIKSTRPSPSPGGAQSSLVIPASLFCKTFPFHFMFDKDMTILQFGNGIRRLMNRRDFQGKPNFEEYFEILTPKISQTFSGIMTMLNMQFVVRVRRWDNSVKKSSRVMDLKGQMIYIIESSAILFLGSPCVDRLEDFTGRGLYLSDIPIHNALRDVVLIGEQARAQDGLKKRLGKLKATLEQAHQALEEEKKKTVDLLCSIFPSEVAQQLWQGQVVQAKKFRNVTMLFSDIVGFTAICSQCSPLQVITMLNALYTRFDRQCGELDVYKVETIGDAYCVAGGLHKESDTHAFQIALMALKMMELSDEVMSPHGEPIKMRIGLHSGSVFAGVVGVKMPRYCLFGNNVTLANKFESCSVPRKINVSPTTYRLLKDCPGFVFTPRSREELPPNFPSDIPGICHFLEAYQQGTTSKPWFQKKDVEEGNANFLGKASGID
# measurement_description: Stimulation of soluble guanylate cyclase in primary endothelial cells (intracellular cGMP, radioimmunological)
# Type: cell-based
# assay_setup: 10 min, embodiment III; test substance 1 μM, 10-minute incubation, primary pig aortic endothelial cells, with or without SNP 1 μM (not stated which); read-out: % increase in cGMP
assay_endpoint: activation at 1 µM (%)

Answered examples (3):
smiles_notation=OCc1nnc(-c2nn(Cc3ccccc3)c3ccccc23)o1 target_under_test="soluble guanylate cyclase (Sus scrofa, UniProt A0A4X1U7N1+A0ACM8Q7I6)" endpoint_result=110
smiles_notation=CCOC(=O)c1coc(-c2nn(Cc3ccccc3)c3ccccc23)n1 target_under_test="soluble guanylate cyclase (Sus scrofa, UniProt A0A4X1U7N1+A0ACM8Q7I6)" endpoint_result=271
smiles_notation=OCc1cnc(-c2nn(Cc3ccccc3)c3ccccc23)o1 target_under_test="soluble guanylate cyclase (Sus scrofa, UniProt A0A4X1U7N1+A0ACM8Q7I6)" endpoint_result=315

[A] OCc1cnc(-c2nn(Cc3ccccc3)c3ccccc23)s1
[B] CCOCc1oc(-c2nn(Cc3ccccc3)c3ccccc23)nc1C
Q) Which is greater in activation at 1 µM, the first item A or the second item B ? Mark your answer with the label of the selected entry.
A) B
(B: 479%, A: 319%)

[P] OCc1csc(-c2nn(Cc3ccccc3)c3ccccc23)n1
[Q] c1ccc(Cn2nc(-c3ncco3)c3ccccc32)cc1
Q) Which record shows the lower activation at 1 µM: the first, P , or the second, Q ? Indicate your choice by writing its label.
A) Q

====

# target_under_test: soluble guanylate cyclase (Sus scrofa, UniProt A0A4X1U7N1+A0ACM8Q7I6)
# Construct: endogenous in cells; host or cells: primary endothelial cells from pig aorta
# measurement_description: Stimulation of soluble guanylate cyclase in primary endothelial cells (intracellular cGMP, radioimmunological)
# Type: cell-based
# assay_setup: 10 min, embodiment III; test substance 1 μM, 10-minute incubation, primary pig aortic endothelial cells, with or without SNP 1 μM (not stated which); read-out: % increase in cGMP
activation at 1 µM values, listed per item

compound="Cc1coc(-c2nn(Cc3ccccc3F)c3ccccc23)n1 [III-80]" assay_endpoint="activation at 1 µM" endpoint_result="> 1000%"
compound="CC(=O)OCc1nnc(-c2nn(Cc3ccccc3F)c3ccccc23)o1 [III-78]" assay_endpoint="activation at 1 µM" endpoint_result=223%
compound="CC(=O)OCc1oc(-c2nn(Cc3ccccc3)c3ccccc23)nc1C [III-77]" assay_endpoint="activation at 1 µM" endpoint_result="> 1000%"

// activation at 1 µM lookup, compound = Cc1nc(-c2nn(Cc3ccccc3)c3ccccc23)oc1CO [III-75] , result: > 1000%

Values from patent US6410740B1
